# System: Peptoniphilus asaccharolyticus
# experimentNotes: In vitro antibacterial activity was tested for Pepto asac PA 3-1
# Assay type: functional
The compounds listed here are annotated with their MIC.
The reply must contain the numeric value and, after it, the unit.

[[record]]
compound = "C[C@@H]1CN(c2cc3c(cc2F)c(=O)c(C(=O)O)cn3C2CC2)C[C@H](C)N1"
systemname = "Peptoniphilus asaccharolyticus"
datavalue = "0.4 µg/mL"

[[record]]
compound = "CC1(CN)CCN(c2c(F)cc3c(=O)c(C(=O)O)cn(C4CC4)c3c2F)C1 (stereo not given)"
systemname = "Peptoniphilus asaccharolyticus"
datavalue = "0.4 µg/mL"

[[record]]
compound = "CCOc1c(N2CCC(C)(CN)C2)c(F)c(N)c2c(=O)c(C(=O)O)cn(C3CC3)c12 (stereo not given)"
systemname = "Peptoniphilus asaccharolyticus"
datavalue = "0.8 µg/mL"

[[record]]
compound = "CCNCC1CCCN(c2c(F)cc3c(=O)c(C(=O)O)cn(C4CC4)c3c2OCC)C1 (stereo not given)"
systemname = "Peptoniphilus asaccharolyticus"
datavalue = "0.4 µg/mL"


Below: the item to evaluate.
Which value of MIC has been reported for CCOc1c(N2CCNC(C)C2)c(F)cc2c(=O)c(C(=O)O)cn(C3CC3)c12 (stereo not given) in the records?
1.6 µg/mL

###

# System: Cutibacterium acnes
# experimentNotes: In vitro antibacterial activity was tested for Propion acnes PA5-1
# Assay type: functional
measurementName: log10 MIC (log10 of the value in µg/mL)
Recorded MIC (log10, µg/mL)

Previously resolved entries follow.
[[record]]
molecule = "COc1c(N2CCCC(N)C2)c(F)cc2c(=O)c(C(=O)O)cn(C3CC3)c12 (stereo not given)"
measurementname = "log10 MIC"
datavalue = -0.70

[[record]]
molecule = "CC1(CN)CCN(c2c(F)cc3c(=O)c(C(=O)O)cn(C4CC4)c3c2F)C1 (stereo not given)"
measurementname = "log10 MIC"
datavalue = -0.40


Which value of log10 MIC has been reported for CC1(CN)CCN(c2nc3c(cc2F)c(=O)c(C(=O)O)cn3C2CC2)C1 (stereo not given) in the records?
0.20

// next record C[C@@H]1CN(c2c(F)cc3c(=O)c(C(=O)O)cn(C4CC4)c3c2F)C[C@H](C)N1
-0.10

// next record COc1c(N2CCC(N)C2)c(F)c(N)c2c(=O)c(C(=O)O)cn(C3CC3)c12 (stereo not given)
-0.10

###

# System: Streptococcus pyogenes
# experimentNotes: In vitro antibacterial activity was tested for Streptococcus pyogenes C203
# Assay type: functional
measurementName: MIC (µg/mL)
Report as a plain number; the unit µg/mL is understood.

Previously resolved entries follow.
[[record]]
molecule = "NC1CCN(c2c(F)cc3c(=O)c(C(=O)O)cn(C4CC4)c3c2Cl)C1 (centres undefined)"
systemname = "Streptococcus pyogenes"
measurementname = "MIC"
measureunit = "µg/mL"
datavalue = 0.05

[[record]]
molecule = "CCOc1c(N2CCCC(N)C2)c(F)cc2c(=O)c(C(=O)O)cn(C3CC3)c12 (centres undefined)"
systemname = "Streptococcus pyogenes"
measurementname = "MIC"
measureunit = "µg/mL"
datavalue = 0.2


Which value of MIC has been reported for COc1c(N2CCC(CN)CC2)c(F)cc2c(=O)c(C(=O)O)cn(C3CC3)c12 in the records?
0.025

// next record COc1c(N2CC(C)NC(C)C2)c(F)cc2c(=O)c(C(=O)O)cn(C3CC3)c12 (centres undefined)
0.1

// next record COc1c(N2CCC(C)(CN)C2)c(F)cc2c(=O)c(C(=O)O)cn(C3CC3)c12 (centres undefined)
0.013

// next record COc1c(N2CCNC(C)C2)c(F)cc2c(=O)c(C(=O)O)cn(C3CC3)c12 (centres undefined)
0.1

// next record CCOc1c(N2CCNC(C)C2)c(F)cc2c(=O)c(C(=O)O)cn(C3CC3)c12 (centres undefined)
0.2

// next record CCOc1c(N2CCCC(N)C2)c(F)c(N)c2c(=O)c(C(=O)O)cn(C3CC3)c12 (centres undefined)
0.05

// next record COc1c(N2CC[C@@H](N)C2)c(F)cc2c(=O)c(C(=O)O)cn(C3CC3)c12
0.05

// next record NCC1CCCN(c2c(F)c(N)c3c(=O)c(C(=O)O)cn(C4CC4)c3c2F)C1 (centres undefined)
0.13

// next record COc1c(N2CCCC(CN)C2)c(F)c(N)c2c(=O)c(C(=O)O)cn(C3CC3)c12 (centres undefined)
0.025

// next record COc1c(N2CCCC(N)C2)c(F)c(N)c2c(=O)c(C(=O)O)cn(C3CC3)c12 (centres undefined)
0.013

// next record CCOc1c(N2CCC(N)C2)c(F)cc2c(=O)c(C(=O)O)cn(C3CC3)c12 (centres undefined)
0.2

// next record CCNCC1CCN(c2c(F)cc3c(=O)c(C(=O)O)cn(C4CC4)c3c2OC)C1 (centres undefined)
0.013

// next record NCC1CCCN(c2c(F)cc3c(=O)c(C(=O)O)cn(C4CC4)c3c2F)C1 (centres undefined)
0.013
